B1: Gamma-crystallin S, residues 96 to 176; numbered along this chain, P22914 (parent)
chain: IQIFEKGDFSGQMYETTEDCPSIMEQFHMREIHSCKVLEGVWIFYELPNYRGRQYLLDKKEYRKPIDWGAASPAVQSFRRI

variants of: B1; assay: abundance fitness (aPCA) (normalised: wild type 0, dead -1); higher = more abundant; growth selection in yeast, the domain comes from the species named; settings: Homo sapiens
measurementLabel: abundance fitness
Just the number, please.

sequence: IQIFEKGDFSGQMYETTEDCPSIMEQFHMREIHSCKVLELVWIFYELPNYRGRQYLLDKKEYRKPIDWGAASPAVQSFRRI [G40L]
abundance fitness: -0.739
//
sequence: IQIFEKGDFSSQMYETTEDCPSIMEQFHMREIHSCKVLEGVWIFYELPNYRGRQYLLDKKEYRKPIDWGAASPAVQSFRRI [G11S]
abundance fitness: 0.06

Suppose we examine the variant IQIFEKGDFSGQMYETTEDCPSIMEQFHMQEIHSCKVLEGVWIFYELPNYRGRQYLLDKKEYRKPIDWGAASPAVQSFRRI [R30Q] ; what abundance fitness value has been reported?
0.11

Sample FQIFEKGDFSGQMYETTEDCPSIMEQFHMREIHSCKVLEGVWIFYELPNYRGRQYLLDKKEYRKPIDWGAASPAVQSFRRI [I1F] — what was its abundance fitness?
0.011

What abundance fitness value was documented for this variant, IQIFEKGDFSGQMYETTEDCPSIMEQFHMREIHSCKVLEGVWIFYELPNYRGRQYLLDKKEYRKPIDWGAASPAVQSFRRL [I81L] ?
-0.065

I have this variant here, IQIFEKGDFSGQMYETTEDCPSIMEQFHMREIHSCKVLEGVWIFYELPNYRGWQYLLDKKEYRKPIDWGAASPAVQSFRRI [R53W] , and I need its recorded abundance fitness.
-0.257

Which value of abundance fitness has been reported for IQIAEKGDFSGQMYETTEDCPSIMEQFHMREIHSCKVLEGVWIFYELPNYRGRQYLLDKKEYRKPIDWGAASPAVQSFRRI [F4A] in the records?
-0.275

If you can, please state the reported abundance fitness value of IQIFEKGDFSGQMYETTEDCPSIMEQFHMREIHSCKVLEGVWIFYELPNYRGRQYLLDKKEYRKPIDWGAASPEVQSFRRI [A74E] .
-0.139

Can you look up the measured abundance fitness of IQIFEKGDFSGEMYETTEDCPSIMEQFHMREIHSCKVLEGVWIFYELPNYRGRQYLLDKKEYRKPIDWGAASPAVQSFRRI [Q12E] for me?
-0.053

For IQIFEKGDFSGQMYETTEDCPSIMEQFEMREIHSCKVLEGVWIFYELPNYRGRQYLLDKKEYRKPIDWGAASPAVQSFRRI [H28E] , what is its reported abundance fitness?
0.006

Bench note: what abundance fitness did IQIFEKMDFSGQMYETTEDCPSIMEQFHMREIHSCKVLEGVWIFYELPNYRGRQYLLDKKEYRKPIDWGAASPAVQSFRRI [G7M] show?
0.012

# get_value(readout='abundance fitness', item= IQIFEKGDFSGQMYETTEDCPSIMEQFHMREIHSCKVLEGVWIFYELPNYRGRQYLLDAKEYRKPIDWGAASPAVQSFRRI [K59A] )
0.012

Quick one: abundance fitness for IQIFEKGDFSGQMYETTEDCPSIMEQFHMREIHSCKVLEGVWIFYELPNYRGRQYLLDKKEYRKPIDWGAASPAVQSFRRE [I81E] ?
0.026

Looking for the measured abundance fitness of IQIFEKGDFSGQMYETTEDCPSIMEQFHMREIHSCKVLEGRWIFYELPNYRGRQYLLDKKEYRKPIDWGAASPAVQSFRRI [V41R] , can you help?
0.047

What does the record list as abundance fitness for IQIFEKGDFSGQMYETTEDCPSIMEQFHMRVIHSCKVLEGVWIFYELPNYRGRQYLLDKKEYRKPIDWGAASPAVQSFRRI [E31V] ?
0.072

Origin of values: the Human Domainome abundance scans (Beltran et al. 2025)
